Read-out: Human Leukocyte Antigen - DR isotype (HLADR), HLA-DRA (gene 3122)
Assay: BSK_CASM3C_HLADR: BioMAP Diversity Plus: CASM3C Assay for Human Leukocyte Antigen - DR isotype (HLADR) Biomarker Activity (AID 2283043);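 also: cell-surface HLA-DR protein level quantified by ELISA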
Settings: primary human coronary artery smooth muscle cells; actives raise or lower the signal
Active and inactive are the calls of the source. The calls were made as follows: active = hit-call score of the fitted dose curve at least 0.9, where 1 is the maximum; inactive = score below 0.9.
// allowed return values: Y (active), N (inactive)

Which outcome was entered for the molecule O=c1c2ccccc2oc2ccccc12 in this test?
N

Please indicate how the test categorized C#CC1(O)CC[C@H]2[C@@H]3CCC4=CCCC[C@@H]4[C@H]3CC[C@@]21C (stereo partly drawn) .
Y

Now turn to the next molecule.
What was the test verdict on N#[N+]c1ccc2c(S(=O)(=O)[O-])cccc2c1O ?
N

----------
Biological target: Retinoic acid receptor alpha (Homo sapiens) (UniProt P10276)
Sequence (P10276 whole entry, looked up): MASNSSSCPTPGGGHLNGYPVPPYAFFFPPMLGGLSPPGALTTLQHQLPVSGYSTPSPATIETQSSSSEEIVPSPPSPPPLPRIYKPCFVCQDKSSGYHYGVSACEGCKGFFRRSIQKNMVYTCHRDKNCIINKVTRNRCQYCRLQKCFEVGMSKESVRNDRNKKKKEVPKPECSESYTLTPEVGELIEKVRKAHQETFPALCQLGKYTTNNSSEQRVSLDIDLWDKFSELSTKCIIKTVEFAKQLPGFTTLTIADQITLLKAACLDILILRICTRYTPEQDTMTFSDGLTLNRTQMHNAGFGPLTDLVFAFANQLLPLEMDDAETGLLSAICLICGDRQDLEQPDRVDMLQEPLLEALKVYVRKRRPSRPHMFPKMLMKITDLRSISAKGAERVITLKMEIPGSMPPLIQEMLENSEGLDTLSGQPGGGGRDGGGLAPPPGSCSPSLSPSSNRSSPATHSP
Assay: ATG_DR5_RAR_CIS: Attagene CIS-FACTORIAL HepG2 Assay for human Retinoic Acid Receptor Alpha (RARE), DR5 submotif (AID 2282934)
Conditions: HepG2 Attagene cis-factorial RARE DR5 reporter, mRNA; actives raise or lower the signal
Experimental: ATG_CIS is a cell-based, multiplexed-readout assay that uses HepG2, a human liver cell line, with measurements taken at 24 hours after chemical dosing in a 24-well plate.ATG_DR5_RAR_CIS is one of 52 assay component(s) measured or calculated from the ATG_CIS assay. […] This assay endpoint, ATG_DR5_CIS, was analyzed with bidirectional fitting relative to DMSO as the negative control and baseline of activity. […]
Activity calls are given as the source filed them. The calls were made as follows: active = hit-call score of the fitted dose curve at least 0.9, where 1 is the maximum; inactive = score below 0.9.
Respond with a class label; see active, inactive

Past entries and their recorded results:
Hi, sorry to bother you, what did the test record for C=C[Si](OC(C)=O)(OC(C)=O)OC(C)=O ?
inactive

Could you check what this test reported for Cc1ccc2oc(=O)ccc2c1 ?
inactive

Call for entry CC(C)(c1cc(Br)c(OCCO)c(Br)c1)c1cc(Br)c(OCCO)c(Br)c1 :
active

Others:
Call for entry O=C1Nc2ccccc2C1(c1ccc(O)cc1)c1ccc(O)cc1 :
inactive

Short answer needed: outcome of this test for C=CC(C)(CCC=C(C)C)OC(=O)C(C)C (configuration not stated) ?
inactive

Assay outcome for Cc1cc(C)c(C)cc1C : what was it?
inactive

// param item: CC(=O)Nc1nnc(S(N)(=O)=O)s1 ; yields the recorded call
inactive

----------
Read-out: Basic fibroblast growth factor (bFGF), FGF2 (gene 2247)
Assay: BSK_MyoF_bFGF: BioMAP Diversity Plus: MyoF Assay for Basic fibroblast growth factor (bFGF) Biomarker Activity (AID 2284246)
Details: primary human lung fibroblasts
Active and inactive are the calls of the source. Rule for the calls: active = hit-call score of the fitted dose curve at least 0.9, where 1 is the maximum; inactive = score below 0.9.
One label from this list, please: active, inactive

// below: answered compounds
Give the logged outcome of this assay for the following compound: O=C(Nc1ccccc1SSc1ccccc1NC(=O)c1ccccc1)c1ccccc1
inactive

What did this assay record as the result for c1ccc2c(c1)ccc1ncccc12 ?
inactive

Could you kindly confirm the outcome this assay logged for C=CC=CC=CCCCCC ?
inactive

Write down the call the test reported for this compound. Item: CCCCC/C=C\C/C=C\CCCCCCCC(=O)OC
inactive

For the next question, use this compound.
How did this test come out for C=CC(=O)OCC(Br)CBr (stereo not drawn) ?
active

----------
Assay: ATG_MRE_CIS: Attagene CIS-FACTORIAL HepG2 Assay for human Metal Responsive Element (MRE) (AID 2282954)
Conditions: HepG2 MRE cis-reporter transcription, Attagene multiplex; actives raise or lower the signal
Experimental: ATG_CIS is a cell-based, multiplexed-readout assay that uses HepG2, a human liver cell line, with measurements taken at 24 hours after chemical dosing in a 24-well plate.ATG_MRE_CIS is one of 52 assay component(s) measured or calculated from the ATG_CIS assay. […] This assay endpoint, ATG_MRE_CIS, was analyzed with bidirectional fitting relative to DMSO as the negative control and baseline of activity. […]
The source made the active and inactive calls. The calls were made as follows: active = hit-call score of the fitted dose curve at least 0.9, where 1 is the maximum; inactive = score below 0.9.
Thanks in advance; please answer with one of these: 1 (yes) for active, 0 (no) for inactive

Please share the test call associated with Cc1cc(C)c(C)c(C)c1 .
0 (no)

Name the outcome recorded for CCCCCCCCC(=O)OCC in the assay.
0 (no)

Fill in: this test's call for ON(Cc1ccccc1)Cc1ccccc1 is ___
0 (no)

Field: outcome | Entry: c1ccc2c(c1)ccc1ncccc12
0 (no)

Test call for this compound, please: N#[N+]c1ccc2c(S(=O)(=O)[O-])cccc2c1O
0 (no)

Please share the test call associated with CC1=NN(c2cc(S(=O)(=O)O)ccc2Cl)C(=O)C1N=Nc1ccccc1 (centres undefined) .
0 (no)

New cases:
Called result for CC(C)c1ccc2c(C(C)C)cc(C(C)C)c(S(=O)(=O)O)c2c1
1 (yes)

// param item: CCCCCCCOC(=O)CCC ; yields the recorded call
0 (no)

How did this test come out for CCOC(=O)[C@H](C)O ?
0 (no)

Lab log entry: C[Si](C)(CCCN)O[Si](C)(C)CCCN — outcome as called in the assay?
0 (no)

Field: outcome | Entry: [Cl][Bi]([Cl])([c]1ccccc1)([c]1ccccc1)[c]1ccccc1
1 (yes)

# fetch the recorded call for c1cc(C(c2ccc(OCC3CO3)cc2)C(c2ccc(OCC3CO3)cc2)c2ccc(OCC3CO3)cc2)ccc1OCC1CO1 (centres undefined) here
1 (yes)

Dear all, I need the recorded test outcome for Nc1cccc(C(F)(F)F)c1 , thank you.
0 (no)

Field: outcome | Entry: CC(C)c1ccc2cc(C(C)C)ccc2c1
0 (no)

# lookup: test call for Cc1ccc(OC(=O)CC(C)C)cc1
0 (no)

Please let me know the test result on file for CC1(C)S[C@@H]2[C@H](NC(=O)COc3ccccc3)C(=O)N2[C@H]1C(=O)O .
0 (no)

// return assay outcome for Cc1ccc(C(C)(C)C)cc1
0 (no)
